These data points were gathered from patent US11773113B2.

Assay: Study of dynamic solubility (saturated solution, HPLC)
Format: physicochemical
Settings: simulated gastric fluid (SGF), pH 1.8, simulated gastric fluid, thermodynamic from solid, SGF (pH = 1.8), 4 h

compound	unit.annotation	solubility at 4 h
N#Cc1ccc(Oc2ccc3c(c2)COB3O)cc1 [Crystal form I]	µg/mL	37

----------
The molecules listed here are annotated with their Solubility.
Test: Study of dynamic solubility (saturated solution, HPLC)
Assay type: physicochemical
Conditions: FaSSIF (pH = 6.5), 4 h

molecule	unit.annotation	Solubility
N#Cc1ccc(Oc2ccc3c(c2)COB3O)cc1 [Crystal form III]	µg/mL	10
N#Cc1ccc(Oc2ccc3c(c2)COB3O)cc1 [Crystal form I]	µg/mL	7
N#Cc1ccc(Oc2ccc3c(c2)COB3O)cc1 [Crystal form II]	µg/mL	5
N#Cc1ccc(Oc2ccc3c(c2)COB3O)cc1 [Crystal form IV]	µg/mL	17

----------
Experiment: Study of dynamic solubility (saturated solution, HPLC)
Format: physicochemical
Conditions: SGF (pH = 1.8), 24 h
Parameter Solubility: see the listing below.

molecule	unit.annotation	Solubility
N#Cc1ccc(Oc2ccc3c(c2)COB3O)cc1 [Crystal form IV]	µg/mL	26
N#Cc1ccc(Oc2ccc3c(c2)COB3O)cc1 [Crystal form II]	µg/mL	15
N#Cc1ccc(Oc2ccc3c(c2)COB3O)cc1 [Crystal form I]	µg/mL	38
N#Cc1ccc(Oc2ccc3c(c2)COB3O)cc1 [Crystal form III]	µg/mL	40

----------
Test: Study of dynamic solubility (saturated solution, HPLC)
Assay type: physicochemical
Conditions: fasted state simulated intestinal fluid (FaSSIF), pH 6.5, fassif, thermodynamic from solid, FaSSIF (pH = 6.5), 24 h
readout.kind: solubility at 24 h (µg/mL)

compound	unit.annotation	recorded.measurement
N#Cc1ccc(Oc2ccc3c(c2)COB3O)cc1 [Crystal form I]	µg/mL	12

----------
Assay: Study of particle size distribution (PSD, laser particle size analytic meter)
Assay type: physicochemical
Conditions: wet process, dispersion medium Isopar G
Quick reference: MV (average particle size as calculated in terms of the volume) of the listed items.
readout.kind: MV (average particle size as calculated in terms of the volume) (μm)

compound	unit.annotation	recorded.measurement
N#Cc1ccc(Oc2ccc3c(c2)COB3O)cc1 [Crystal form I]	μm	9.62
N#Cc1ccc(Oc2ccc3c(c2)COB3O)cc1 [Crystal form III]	μm	289.0
N#Cc1ccc(Oc2ccc3c(c2)COB3O)cc1 [Crystal form IV]	μm	52.95
N#Cc1ccc(Oc2ccc3c(c2)COB3O)cc1 [Crystal form II]	μm	23.13

----------
Test: Study of dynamic solubility (saturated solution, HPLC)
Type: physicochemical
Settings: fed state simulated intestinal fluid (FeSSIF), pH 5, fessif, thermodynamic from solid, FeSSIF (pH = 5.0), 24 h
readout.kind: solubility at 24 h (µg/mL)

molecule	readout.kind	recorded.measurement
N#Cc1ccc(Oc2ccc3c(c2)COB3O)cc1 [Crystal form I]	solubility at 24 h	59
